Each recorded value in this set is attributed to ChEMBL document CHEMBL4304791.

Give CC50 at 24 h for every item shown.
- assay details: Cytotoxicity against human A549 cells assessed as reduction in cell viability incubated for 24 hrs by Alamar blue assay
- Type: cell-based
One number for each entry, in µM.

# annotated cases, reported CC50 at 24 h shown
In [3]: df
Out[3]:
                              sample_smiles  quantity_kind  assay_value
0      COc1ccc(Br)cc1CNC12CC3CC(CC(C3)C1)C2   CC50 at 24 h          277
1  COc1ccc(I)cc1CNC12CC3CC(C)(CC(C)(C3)C1)C2   CC50 at 24 h         90.8
2   CC12CC3CC(C)(C1)CC(NCc1ccc(I)cc1)(C3)C2   CC50 at 24 h          137

Next molecule, please.
Given item COc1ccc(Br)cc1CNC12CC3CC(C)(CC(C)(C3)C1)C2 , the value recorded as its CC50 at 24 h is 120

* * *

Give fold change (FC) for every item shown.
- System: A549
- assay details: Inhibition of diphtheria induced toxicity in human A549 cells assessed as protection fold at 30 uM incubated for 20 hrs followed by replacement of [14c]-Leucine containing medium and measured after 4 hrs by liquid scintillation analysis relative to ABMA
- Type: functional

# annotated cases, reported fold change (FC) shown
>>> print(df.to_string())
                                   compound  assay_value
0                 COc1ccc(Br)cc1CNCc1ccccc1            0
1  CC(N)C12CC3CC(CC(C3)C1)C2.Cl (centres undefined) [RIMANTADINE HYDROCHLORIDE]         0.35
2   CC12CC3CC(C)(C1)CC(NCc1ccc(I)cc1)(C3)C2         12.5
3   CC12CC3CC(C)(C1)CC(N)(C3)C2 [MEMANTINE]            0
4            COc1ccc(Br)cc1CNc1cccc2ccccc12         0.19
5        NC12CC3CC(CC(C3)C1)C2 [AMANTADINE]          0.3

State the recorded fold change (FC) for every item in the following list.
1. Cn1c(CNC23CC4CC(CC(C4)C2)C3)cc2ccccc21
2. COc1ccc(Br)cc1CN[C@H]1C[C@@H]2CC[C@@]1(C)C2(C)C
3. COc1ccc(Br)cc1CN(C(C)=O)C12CC3CC(CC(C3)C1)C2
4. CCCCCCCCCNCc1cc(Br)ccc1OC
5. Brc1ccc(CNC23CC4CC(CC(C4)C2)C3)cc1
6. Cn1c(CNC2C3CC4CC(C3)CC2C4)cc2ccccc21 (centres undefined)
7. COc1ccc(Br)cc1CNc1ccccc1
8. COc1ccc(Br)cc1CNC12CC3CC(C)(CC(C)(C3)C1)C2

[A]
1. 0.21
2. 0.4
3. 0.3
4. 0.26
5. 2.3
6. 0.21
7. 0.19
8. 18.5

* * *

Give EC50 for every item shown.
- Test system: A549
- assay details: Cytoprotection activity against diphtheria toxin-induced cytotoxicity against human A549 cells assessed as effect on protein synthesis incubated for 20 hrs followed by replacement of [14c]-Leucine containing medium and measured after 4 hrs by liquid scintillation analysis
- Format: functional, cell-based

sample smiles	study target	EC50
CO/C1=C\C(C)=C\[C@@H](C)[C@@H](O)[C@@H](C)C/C(C)=C/C=C/[C@H](OC)[C@@H]([C@@H](C)[C@@H](O)[C@H](C)[C@@]2(O)C[C@@H](O)[C@H](C)[C@@H](C(C)C)O2)OC1=O	A549	0.0006 µM
CC12CC3CC(C)(C1)CC(NCc1ccc(I)cc1)(C3)C2	A549	38.3 µM
COc1ccc(Br)cc1CNC12CC3CC(CC(C3)C1)C2	A549	62.9 µM

State the recorded EC50 for every item in the following list.
1. COc1ccc(Br)cc1CNC12CC3CC(C)(CC(C)(C3)C1)C2
2. COc1ccc(I)cc1CNC12CC3CC(C)(CC(C)(C3)C1)C2

[A]
["25.7 µM", "25.1 µM"]

* * *

Give fold change (FC) for every item shown.
- Tested on: A549
- assay details: Inhibition of diphtheria induced toxicity in human A549 cells assessed as protection fold at 30 uM incubated for 20 hrs followed by replacement of [14c]-Leucine containing medium and measured after 4 hrs by liquid scintillation analysis relative to ABMA
- Assay type: functional
Answers are plain numbers.

In [3]: df
Out[3]:
                                   compound  assay_value
0                  COc1ccc(Br)cc1CNC(C)(C)C            0
1  O=[N+]([O-])c1cccc(CNC23CC4CC(CC(C4)C2)C3)c1          5.7

State the recorded fold change (FC) for every item in the following list.
1. COc1ccc(Br)cc1CNC1CC(C)CCC1C(C)C (configuration not stated)
2. COc1ccc(Br)cc1C(=O)NC12CC3CC(CC(C3)C1)C2
3. COc1ccc(Br)cc1CNC1CCCCC1
4. COc1ccc(I)cc1CNC12CC3CC(C)(CC(C)(C3)C1)C2
5. COc1cc(I)ccc1CNC12CC3CC(CC(C3)C1)C2
6. COc1ccc(Br)cc1CN(C(=O)c1ccccc1)C12CC3CC(CC(C3)C1)C2
7. COc1ccc(Br)cc1CN(C)C12CC3CC(CC(C3)C1)C2
8. COc1ccc(Br)cc1/C=N/C12CC3CC(CC(C3)C1)C2

[A]
1. 2.2
2. 0
3. 0
4. 35.1
5. 3.6
6. 0.25
7. 0.52
8. 0.05

State the recorded fold change (FC) for every item in the following list.
1. Ic1ccc(CNC23CC4CC(CC(C4)C2)C3)cc1
2. COc1ccc(Br)cc1CNCCCc1ccccc1

[A]
1: 6.6; 2: 0.52

* * *

- Test system: Zaire ebolavirus
- assay details: Antiviral activity against Zaire EBOV-Mayinga expressing GFP infected in human HeLa cells preincubated for 1 hr followed by viral infection after 24 hrs by DAPI-staining based fluorescence assay
- Assay type: functional, organism-based
- experimental conditions: Zaire, 1976, HeLa
quantity kind: EC50 (nM)
Give bare numbers, in nM.

Given item COc1ccc(Br)cc1CNC12CC3CC(C)(CC(C)(C3)C1)C2 , the value recorded as its EC50 is 908

* * *

- Test system: Vero
- assay details: Inhibition of TcsL-induced cytotoxicity against African green monkey Vero cells assessed as reversal of toxin-induced cell rounding after 16 hrs by inverted microscopic analysis
- Type: functional, cell-based
- experimental conditions: Chlorocebus sabaeus
quantity kind: pEC50
Give bare numbers, as −log10 of the molar value.

With Vero as the test system, COc1ccc(Br)cc1CNC12CC3CC(C)(CC(C)(C3)C1)C2 showed pEC50 of 4.80

* * *

- assay details: Cytotoxicity against human HeLa cells assessed as reduction in cell viability incubated for 20 hrs by Alamar blue assay
- Format: cell-based
quantity kind: CC50 at 20 h

Given item COc1ccc(Br)cc1CNC12CC3CC(C)(CC(C)(C3)C1)C2 , the value recorded as its CC50 at 20 h is 117 µM

* * *

- assay details: Selectivity index, ratio of CC50 for cytotoxicity against human HeLa cells to ratio of EC50 for Antiviral activity against Zaire EBOV-mayinga strain expressing GFP infected in human HeLa cells
- Assay type: toxicity, cell-based
- experimental conditions: read-out: Ratio CC50/EC50
quantity kind: selectivity ratio

Given item COc1ccc(Br)cc1CNC12CC3CC(C)(CC(C)(C3)C1)C2 , the value recorded as its selectivity ratio is 120
